test protocol: in vivo
reported conditions: po
Measured LD50, listed per entry.
parameter: LD50

structure smiles	parameter	value observed
CN(C)CCON=C1CCCC1=Cc1ccccc1	LD50	450 mg/kg
CCN(CC)CCON=C1CCCC1=Cc1ccccc1	LD50	210 mg/kg
COc1ccccc1C=C1CCCCC1=NOCCCN(C)C	LD50	880 mg/kg
CCN(CC)CCON=C1CCCCC1=Cc1ccccc1	LD50	430 mg/kg
CN(C)CCCON=C1CCCCC1=Cc1ccccc1	LD50	560 mg/kg
CC(C)N(CCON=C1CCCC1=Cc1ccccc1)C(C)C	LD50	450 mg/kg

###

Tested on: tetrabenazine
test protocol: Tetrabenazine antagonistic effect, oral administration
Assay type: in vivo
reported conditions: tetrabenazine antagonism
Criterion: Therapeutic index strictly less than 20. Met: label 1. Not met: label 0.

compound	category
CN(C)CCCON=C1CCCCC1=Cc1ccc(Cl)cc1 [Example 19]	label 0
CN(C)CCC=C1c2ccccc2CCc2ccccc21 [Amitriptylin, reference compound]	label 1
COc1ccc(C=C2CCCCCC2=NOCCCN(C)C)cc1 [Example 13]	label 1
CN(C)CCON=C1CCCC1=Cc1ccccc1 [Example 27]	label 1
CN(C)CCCON=C1CCCCC1=Cc1ccccc1Cl [Example 21]	label 0
